Kindly state Emax for each of the entries shown.
- System: MCF7
- procedure.details: Decrease in estrogen receptor alpha level in human MCF7 cells after 4 hrs by in-cell western assay relative to fulvestrant
- Format: functional
- condition.context: MCF7, 4 h

Example cases with answers are listed next.
>>> test_result("O=C(O)/C=C/c1ccc(/C(=C(\\c2ncccc2Cl)C2CCC2)c2ccc3[nH]nc(F)c3c2)cc1")
"90%"
>>> test_result("O=C(O)/C=C/c1ccc(/C(=C(\\c2ccccc2)C2CCC2)c2ccc3[nH]nc(F)c3c2)cc1")
"90%"
>>> test_result("O=C(O)/C=C/c1ccc(/C(=C(\\c2ccccc2)C2CCC2)c2ccc3[nH]ncc3c2)cc1")
"89%"
>>> test_result("O=C(O)/C=C/c1ccc(/C(=C(\\c2ccccc2)C2CCCC2)c2ccc3[nH]ncc3c2)cc1")
"90%"
>>> test_result("CC/C(=C(/c1ccc(/C=C/C(=O)O)cc1)c1ccc2[nH]ncc2c1C)c1ccccc1")
"90%"

Here are 4 molecules. What values of Emax were reported for them?
1. O=C(O)/C=C/c1ccc(/C(=C(\c2ccccc2)C2CCCCC2)c2ccc3[nH]ncc3c2)cc1
2. CCC/C(=C(/c1ccc(/C=C/C(=O)O)cc1)c1ccc2[nH]ncc2c1)c1ccccc1
3. CC/C(=C(/c1ccc(/C=C/C(=O)O)cc1)c1ccc2[nH]ncc2n1)c1ccccc1
4. CC/C(=C(/c1ccc(/C=C/C(=O)O)cc1)c1ccc2[nH]ncc2c1F)c1ccccc1

Marked response:
86%
92%
88%
89%

====

- procedure.details: AUC in CD-1 mouse at 10 mg/kg, po
- Type: ADME, organism-based
- condition.context: in vivo
Sorting guide: entries reporting AUC beneath 900 ng·h/mL go in the Y pile, the rest go in the N pile.

These solved cases illustrate the format of a correct answer.
>>> qualitative_label("O=C(O)/C=C/c1ccc(/C(=C(\\c2ncccc2C(F)(F)F)C2CCC2)c2ccc3[nH]nc(F)c3c2)cc1")
"Y"
>>> qualitative_label("CC/C(=C(/c1ccc(/C=C/C(=O)O)cc1)c1ccc2[nH]ncc2c1Cl)c1ccccc1")
"N"
>>> qualitative_label("O=C(O)/C=C/c1ccc(/C(=C(\\c2ccccc2)C2CCC2)c2ccc3[nH]nc(F)c3c2)cc1")
"N"
>>> qualitative_label("N#Cc1cc(F)ccc1/C(=C(\\c1ccc(/C=C/C(=O)O)cc1)c1ccc2[nH]nc(F)c2c1)C1CCC1")
"Y"
>>> qualitative_label("N#Cc1cnccc1/C(=C(\\c1ccc(/C=C/C(=O)O)cc1)c1ccc2[nH]nc(F)c2c1)C1CCC1")
"Y"

Exam item: Given the entry CC/C(=C(/c1ccc(/C=C/C(=O)O)cc1)c1ccc2[nH]ncc2c1F)c1ccccc1 , would its reported AUC be below 900 ng·h/mL?
Marked response: N

Exam item: Given the entry O=C(O)/C=C/c1ccc(/C(=C(\c2ncc(C(F)(F)F)cc2Cl)C2CCC2)c2ccc3[nH]nc(F)c3c2)cc1 , would its reported AUC be below 900 ng·h/mL?
Marked response: N

====

Kindly state IC50 for each of the entries shown.
- Tested on: MCF7
- procedure.details: Cytotoxicity against human MCF7 cells assessed as decrease in cell viability after 5 days by celltiterGlo assay
- Assay type: functional, cell-based
- condition.context: MCF7, 120 h
Numbers only, in nM.

Example cases with answers are listed next.
>>> test_result("O=C(O)/C=C/c1ccc(/C(=C(/CCCl)c2ccccc2)c2ccc3[nH]ncc3c2)cc1")
9
>>> test_result("O=C(O)/C=C/c1ccc(/C(=C(/CCF)c2ccccc2)c2ccc3[nH]ncc3c2)cc1")
2.1
>>> test_result("O=C(O)/C=C/c1ccc(/C(=C(\\c2ccccc2Cl)C2CCC2)c2ccc3[nH]nc(F)c3c2)cc1")
1.1
>>> test_result("O=C(O)/C=C/c1ccc(/C(=C(\\c2ccccc2)C2CCC2)c2ccc3[nH]nc(F)c3c2)cc1")
1.4
>>> test_result("CC/C(=C(/c1ccc(/C=C/C(=O)O)cc1)c1ccc2[nH]ncc2c1OC)c1ccccc1")
55

Here are 6 compounds. What values of IC50 were reported for them?
1. O=C(O)/C=C/c1ccc(/C(=C(\c2ncc(F)cc2Cl)C2CCC2)c2ccc3[nH]nc(F)c3c2)cc1
2. O=C(O)/C=C/c1ccc(/C(=C(\c2ccccc2)C2CCCC2)c2ccc3[nH]ncc3c2)cc1
3. CC/C(=C(/c1ccc(/C=C/C(=O)O)cc1)c1ccc2[nH]ncc2c1)c1ccccc1
4. CC/C(=C(/c1ccc(/C=C/C(=O)O)cc1)c1cc2cn[nH]c2cc1F)c1ccccc1
5. O=C(O)/C=C/c1ccc(/C(=C(\c2ccccc2)C(F)F)c2ccc3[nH]ncc3c2)cc1
6. N#Cc1cnccc1/C(=C(\c1ccc(/C=C/C(=O)O)cc1)c1ccc2[nH]nc(F)c2c1)C1CCC1

Marked response:
1: 1.7; 2: 10; 3: 7.2; 4: 47; 5: 14; 6: 3.8

Here are 6 compounds. What values of IC50 were reported for them?
1. O=C(O)/C=C/c1ccc(/C(=C(\c2ccccc2)C2CCC2)c2ccc3[nH]ncc3c2)cc1
2. CCC/C(=C(/c1ccc(/C=C/C(=O)O)cc1)c1ccc2[nH]ncc2c1)c1ccccc1
3. O=C(O)/C=C/c1ccc(/C(=C(\c2ccccc2)C2CC2)c2ccc3[nH]ncc3c2)cc1
4. O=C(O)/C=C/c1ccc(/C(=C(\c2ccncc2Cl)C2CCC2)c2ccc3[nH]nc(F)c3c2)cc1
5. O=C(O)/C=C/c1ccc(/C(=C(\c2ncc(Cl)cc2Cl)C2CCC2)c2ccc3[nH]nc(F)c3c2)cc1
6. CC/C(=C(/c1ccc(/C=C/C(=O)O)cc1)c1ccc2[nH]ncc2c1Cl)c1ccccc1

Marked response:
1. 1.4
2. 11
3. 13
4. 0.8
5. 3.5
6. 1.6
